- EXPERIMENT DESCRIPTION: Plasma protein binding (equilibrium dialysis), mouse
- Type: in vitro ADME, CD-1 mouse
- RUN CONDITIONS: Mu (CD-1 mouse plasma), recovery in plasma protein binding assay; read-out: (% Recovery)
VALUE KIND: recovery at 4 h, 2 μM (%)

[
  {
    "COMPOUND": "C[C@@H](O)[C@@H]1NC(=O)[C@H](CCCCN)NC(=O)[C@@H](Cc2c[nH]c3ccccc23)NC(=O)[C@H](Cc2ccccc2)NC(=O)[C@@H](NC(=O)[C@H](N)Cc2ccccc2)CSSC[C@@H](C(=O)N[C@H](CO)[C@@H](C)O)NC1=O [Octreotide Acetate, reference compound]",
    "VALUE KIND": "recovery at 4 h, 2 μM",
    "VALUE REPORTED": 84.5
  }
]
